# assay.method.text: Microsomal clearance
# Assay type: in vitro ADME
# setup.conditions: mouse, mouse microsomes; Table 3

>  <molecule>
Cn1c(C(C)(C)C)cc(=NC(=O)c2cc(C(F)(F)F)ccc2OCC(C)(C)O)n1CC1CCC1 [RNB-61]

>  <microsomal CLint>
≤ 10 µL/min/mg

$$$$

---

# assay.method.text: Single-dose pharmacokinetics in mice
# Assay type: in vivo
# setup.conditions: mouse, plasma, iv, 2 mg kg^–1 i.v., read-out: Vss
quantity.measured: Vd (L/kg)

>  <cpd.smiles>
Cn1c(C(C)(C)C)cc(=NC(=O)c2cc(C(F)(F)F)ccc2OCC(C)(C)O)n1CC1CCC1

>  <quantity.measured>
Vd

>  <result.value>
2.4

$$$$

---

# assay.method.text: Parallel artificial membrane permeability (PAMPA) assay
# Assay type: in vitro ADME
# setup.conditions: PAMPA, Table 1; read-out: PAMPA Peff
Items are presented alongside their recorded Papp.

>  <cpd.smiles>
N#Cc1cc(NC(=O)CCc2nc(-c3ccc(F)cc3Cl)no2)cnc1CC(F)(F)F

>  <Papp>
7.4 ×10⁻⁶ cm/s

$$$$
>  <cpd.smiles>
CC(C)(Oc1ccc(C(F)(F)F)cn1)C(=O)Cc1cc(C(C)(C)C)no1

>  <Papp>
2 ×10⁻⁶ cm/s

$$$$
>  <cpd.smiles>
COCCOCCc1cc(NC(=O)C(C)(C)S(=O)(=O)C2CCOCC2)on1

>  <Papp>
5.9 ×10⁻⁶ cm/s

$$$$
>  <cpd.smiles>
Cn1c(C(C)(C)C)cc(=NC(=O)c2cc(C(F)(F)F)ccc2OCC(C)(C)O)n1CC1CCC1

>  <Papp>
2.14 ×10⁻⁶ cm/s

$$$$

---

# Tested on: P-gp
# assay.method.text: Brain penetration study with/without P-gp inhibitor tariquidar
# Format: in vivo, male C57/BL6 mice
# setup.conditions: male, C57/BL6, mouse, intravenous, with tariquidar 5 mg kg^–1 i.v. bolus, 30 min prior to RNB-61; ratio of AUClast in brain and plasma; + tariquidar 5 mg kg^–1; read-out: brain-plasma partition coefficient Kp

>  <cpd.smiles>
Cn1c(C(C)(C)C)cc(=NC(=O)c2cc(C(F)(F)F)ccc2OCC(C)(C)O)n1CC1CCC1

>  <target>
P-gp

>  <Kp>
0.747

$$$$

---

# target: MAGL (Homo sapiens, UniProt Q99685)
# Sequence (Q99685 1-303): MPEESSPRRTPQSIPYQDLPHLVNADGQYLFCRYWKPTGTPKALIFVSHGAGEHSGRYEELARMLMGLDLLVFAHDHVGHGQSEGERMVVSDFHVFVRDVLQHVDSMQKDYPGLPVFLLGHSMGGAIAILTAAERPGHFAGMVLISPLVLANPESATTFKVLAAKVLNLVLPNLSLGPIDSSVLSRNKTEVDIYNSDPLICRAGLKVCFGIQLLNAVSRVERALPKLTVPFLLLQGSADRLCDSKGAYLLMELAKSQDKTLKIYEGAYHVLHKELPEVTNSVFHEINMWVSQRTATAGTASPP
quantity.measured: IC50

>  <compound>
Cn1c(C(C)(C)C)cc(=NC(=O)c2cc(C(F)(F)F)ccc2OCC(C)(C)O)n1CC1CCC1 [RNB-61]

>  <result.value>
> 10 µM

$$$$

---

# assay.method.text: Hepatocyte clearance assay
# Assay type: in vitro ADME
# setup.conditions: C57BL6, mouse

>  <compound>
Cn1c(C(C)(C)C)cc(=NC(=O)c2cc(C(F)(F)F)ccc2OCC(C)(C)O)n1CC1CCC1 [RNB-61]

>  <hepatocyte CLint at 1 μM, µL/min/1e6 cells>
48.5

$$$$

---

# assay.method.text: Single-dose pharmacokinetics in male Wistar rats
# Format: in vivo
# setup.conditions: rat, plasma, po, 3 mg kg^–1 p.o.

>  <compound>
Cn1c(C(C)(C)C)cc(=NC(=O)c2cc(C(F)(F)F)ccc2OCC(C)(C)O)n1CC1CCC1 [RNB-61]

>  <AUC(0-inf) (ng·h/mL)>
7410

$$$$

---

# assay.method.text: Thermodynamic solubility assay (THESA), also in FaSSIF and FeSSIF
# Type: physicochemical
# setup.conditions: aqueous buffer, thermodynamic from solid; read-out: aqueous solubility THESA

>  <cpd.smiles>
Cn1c(C(C)(C)C)cc(=NC(=O)c2cc(C(F)(F)F)ccc2OCC(C)(C)O)n1CC1CCC1

>  <solubility at 15 h / µg/mL>
316

$$$$

---

# target: CYP450 2D6 (Homo sapiens, UniProt P10635)
# Sequence (P10635 whole entry): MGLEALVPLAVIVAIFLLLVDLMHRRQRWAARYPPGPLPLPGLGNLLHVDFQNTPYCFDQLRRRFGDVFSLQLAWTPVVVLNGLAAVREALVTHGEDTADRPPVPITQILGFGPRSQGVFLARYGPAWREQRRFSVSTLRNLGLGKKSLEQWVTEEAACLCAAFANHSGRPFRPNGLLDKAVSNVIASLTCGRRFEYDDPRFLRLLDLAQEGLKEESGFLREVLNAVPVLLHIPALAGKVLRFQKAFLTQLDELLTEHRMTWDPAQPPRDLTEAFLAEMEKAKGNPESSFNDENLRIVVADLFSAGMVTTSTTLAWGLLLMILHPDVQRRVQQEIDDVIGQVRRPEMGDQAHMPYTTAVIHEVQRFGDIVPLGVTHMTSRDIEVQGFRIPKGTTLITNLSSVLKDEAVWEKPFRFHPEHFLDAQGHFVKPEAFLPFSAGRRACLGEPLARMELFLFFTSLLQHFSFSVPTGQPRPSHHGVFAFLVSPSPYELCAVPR

>  <cpd.smiles>
Cn1c(C(C)(C)C)cc(=NC(=O)c2cc(C(F)(F)F)ccc2OCC(C)(C)O)n1CC1CCC1

>  <IC50 / µM>
15.5

$$$$

---

# assay.method.text: Fraction unbound in plasma
# Type: in vitro ADME
# setup.conditions: rat

>  <cpd.smiles>
Cn1c(C(C)(C)C)cc(=NC(=O)c2cc(C(F)(F)F)ccc2OCC(C)(C)O)n1CC1CCC1

>  <fraction unbound>
0.017

$$$$

---

# assay.method.text: Single-dose pharmacokinetics in mice
# Format: in vivo
# setup.conditions: mouse, plasma, po, 4 mg kg^–1 p.o.

>  <compound>
Cn1c(C(C)(C)C)cc(=NC(=O)c2cc(C(F)(F)F)ccc2OCC(C)(C)O)n1CC1CCC1 [RNB-61]

>  <bioavailability / %>
54

$$$$

---

# assay.method.text: Single-dose pharmacokinetics in mice
# Assay type: in vivo
# setup.conditions: mouse, plasma, po, 26 mg kg^–1 p.o.
quantity.measured: AUC(0-inf)

>  <cpd.smiles>
Cn1c(C(C)(C)C)cc(=NC(=O)c2cc(C(F)(F)F)ccc2OCC(C)(C)O)n1CC1CCC1

>  <result.value>
47300 ng·h/mL

$$$$

---

# assay.method.text: Thermodynamic solubility assay (THESA), also in FaSSIF and FeSSIF
# Type: physicochemical
# setup.conditions: fassif, thermodynamic from solid; fasted simulated gastrointestinal fluid; read-out: solubility FaSSIF

>  <cpd.smiles>
Cn1c(C(C)(C)C)cc(=NC(=O)c2cc(C(F)(F)F)ccc2OCC(C)(C)O)n1CC1CCC1

>  <solubility at 15 h, µg/mL>
630

$$$$

---

# target: ABHD6 (Homo sapiens, UniProt Q9BV23)
# Sequence (Q9BV23 whole entry, species assumed): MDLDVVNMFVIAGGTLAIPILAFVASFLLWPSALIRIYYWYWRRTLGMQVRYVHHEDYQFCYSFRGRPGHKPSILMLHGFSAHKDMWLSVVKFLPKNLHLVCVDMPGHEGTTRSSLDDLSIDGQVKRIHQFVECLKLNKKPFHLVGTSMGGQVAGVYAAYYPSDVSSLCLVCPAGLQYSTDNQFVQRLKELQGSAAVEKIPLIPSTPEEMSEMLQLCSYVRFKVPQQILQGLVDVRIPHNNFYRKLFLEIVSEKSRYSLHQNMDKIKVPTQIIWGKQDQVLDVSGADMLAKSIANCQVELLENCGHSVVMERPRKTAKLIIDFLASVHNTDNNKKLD

>  <compound>
Cn1c(C(C)(C)C)cc(=NC(=O)c2cc(C(F)(F)F)ccc2OCC(C)(C)O)n1CC1CCC1 [RNB-61]

>  <IC50>
> 10 µM

$$$$

---

# assay.method.text: Rodent single-dose PK studies (summary rats and mice)
# Type: in vivo
# setup.conditions: Wistar (rats); mouse strain not stated for this study, rat, mouse, plasma, intravenous; range rats and mice; read-out: volume of distribution at steady state (Vss)
quantity.measured: Vd

>  <molecule>
Cn1c(C(C)(C)C)cc(=NC(=O)c2cc(C(F)(F)F)ccc2OCC(C)(C)O)n1CC1CCC1 [RNB-61]

>  <result.value>
1.6 to 2.4 L/kg

$$$$

---

# assay.method.text: Single-dose pharmacokinetics in male Wistar rats
# Type: in vivo
# setup.conditions: rat, plasma, po, 26 mg kg^–1 p.o.

>  <compound>
Cn1c(C(C)(C)C)cc(=NC(=O)c2cc(C(F)(F)F)ccc2OCC(C)(C)O)n1CC1CCC1 [RNB-61]

>  <Tmax [h]>
3

$$$$

---

# assay.method.text: Single-dose pharmacokinetics in mice
# Type: in vivo
# setup.conditions: mouse, plasma, po, 4 mg kg^–1 p.o.

>  <cpd.smiles>
Cn1c(C(C)(C)C)cc(=NC(=O)c2cc(C(F)(F)F)ccc2OCC(C)(C)O)n1CC1CCC1

>  <half-life>
6.4 h

$$$$

---

# target: cynomolgus CB2R (Macaca fascicularis, UniProt G7NVV5)
# Sequence (G7NVV5 1-360): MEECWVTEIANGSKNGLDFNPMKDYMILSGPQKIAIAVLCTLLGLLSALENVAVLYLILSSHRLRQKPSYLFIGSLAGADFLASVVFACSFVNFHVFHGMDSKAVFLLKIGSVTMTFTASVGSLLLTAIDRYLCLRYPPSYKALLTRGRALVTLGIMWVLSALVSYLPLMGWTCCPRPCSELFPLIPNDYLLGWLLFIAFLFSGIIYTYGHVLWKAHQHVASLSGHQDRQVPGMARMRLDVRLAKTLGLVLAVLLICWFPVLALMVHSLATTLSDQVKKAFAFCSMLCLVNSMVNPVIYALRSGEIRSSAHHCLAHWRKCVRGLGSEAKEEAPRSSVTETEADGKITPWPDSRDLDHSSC
# assay.method.text: cAMP assay in CHO cells
# setup.conditions: mean ± SD; read-out: EC50 cAMP assay, monkey CB2R
pEC50: −log10 of the molar value.

>  <cpd.smiles>
Cn1c(C(C)(C)C)cc(=NC(=O)c2cc(C(F)(F)F)ccc2OCC(C)(C)O)n1CC1CCC1

>  <pEC50>
9.15

$$$$

---

# assay.method.text: Single-dose pharmacokinetics in male Wistar rats
# Type: in vivo
# setup.conditions: rat, plasma, iv, 1 mg kg^–1 i.v.
quantity.measured: half-life (h)

>  <cpd.smiles>
Cn1c(C(C)(C)C)cc(=NC(=O)c2cc(C(F)(F)F)ccc2OCC(C)(C)O)n1CC1CCC1

>  <quantity.measured>
half-life

>  <result.value>
6

$$$$

---

# assay.method.text: Hepatocyte clearance assay
# Format: in vitro ADME
# setup.conditions: human, pooled cryopreserved human hepatocytes in suspension culture

>  <cpd.smiles>
Cn1c(C(C)(C)C)cc(=NC(=O)c2cc(C(F)(F)F)ccc2OCC(C)(C)O)n1CC1CCC1

>  <unit.abbrev>
µL/min/1e6 cells

>  <hepatocyte CLint at 1 μM>
85

$$$$

---

# assay.method.text: Single-dose pharmacokinetics in male Wistar rats
# Assay type: in vivo
# setup.conditions: rat, plasma, po, 3 mg kg^–1 p.o.

>  <compound>
Cn1c(C(C)(C)C)cc(=NC(=O)c2cc(C(F)(F)F)ccc2OCC(C)(C)O)n1CC1CCC1 [RNB-61]

>  <Tmax [h]>
5.5

$$$$
